# assayTarget: ACLY (Homo sapiens (Human))
# assay: InCell Pulse assay (permeate HEK293 cells, bind to and stabilize ACLY)
# Format: cell-based
# condition: HEK293 cells transfected with pICP-ACLY(FL)-ePL; 1 hour at 37° C., 55° C. heat pulse 10 minutes; read-out: InCell Pulse IC50 GMean
readoutLabel: IC50

Past entries and their recorded results:
smilesString: C[C@@H]1COc2ccccc2-c2cc(c(F)cc2F)NS(=O)(=O)c2cc(cc(Cl)c2O)C(=O)N1
reportedResult: ≥ 50 µM
--
smilesString: O=C1OCCOc2ccc(F)cc2-c2cc(F)c(F)c(c2)NS(=O)(=O)c2cc1cc(Cl)c2O
reportedResult: < 0.3 µM
--
smilesString: O=S1(=O)Nc2cc(c(F)cc2F)-c2ccccc2OCCOCc2cc(Cl)c(O)c1c2
reportedResult: 0.3 to 1 µM

Now consider a different molecule.
The molecule identified as "O=C1NCCc2ccccc2-c2cc(c(F)cc2F)NS(=O)(=O)c2cc1cc(Cl)c2O" registered its IC50 at 1 to 50 µM

* * *

Each item that follows carries a reported pIC50.
# assayTarget: ACLY (Homo sapiens (Human))
# assay: Human ACLY (hACLY) RF/MS activity assay
# Format: biochemical
# condition: 1 nM hACLY; 30 min pre-incubation; 15 μM Coenzyme A, 50 μM ATP, 50 μM citrate; CoA to Acetyl-CoA by RF/MS; read-out: RFMS IC50 GMean
pIC50: −log10 of the molar value.

Past entries and their recorded results:
smilesString: Cc1cc2cc(c1O)S(=O)(=O)Nc1cc(c(F)cc1F)-c1ccccc1CCOC2=O
reportedResult: 5.00 to 7.00
--
smilesString: COc1c(Cl)cc2cc1S(=O)(=O)Nc1cc(ccc1O)-c1ccccc1OCCOC2=O
reportedResult: ≤ 5.00
--
smilesString: O=C1OCCc2ccccc2-c2cc(F)c(F)c(c2)NS(=O)(=O)c2cc1cc(Cl)c2O
reportedResult: > 7.70

Now consider a different compound.
The compound identified as "O=S1(=O)Nc2cc(c(F)cc2F)-c2ccccc2OCCOCc2cc(Cl)c(O)c1c2" registered its pIC50 at > 7.70

* * *

# assayTarget: UniProt P53396
# assay: Human ACLY (hACLY) RF/MS activity assay
# Type: biochemical
# condition: 1 nM hACLY; 30 min pre-incubation; 15 μM Coenzyme A, 50 μM ATP, 50 μM citrate; CoA to Acetyl-CoA by RF/MS; read-out: RFMS IC50 GMean
Each item that follows carries a reported IC50.

Past entries and their recorded results:
smilesString: Cc1cc(F)c2cc1-c1ccccc1OCCOC(=O)c1cc(Cl)c(O)c(c1)S(=O)(=O)N2
IC50: < 20 nM
//
smilesString: O=C1OCCc2ccc(F)cc2-c2ccc(F)c(c2)NS(=O)(=O)c2cc1cc(Cl)c2O
IC50: 20 to 100 nM
//
smilesString: O=C1OCCOc2cc3cn[nH]c3cc2-c2cc(c(F)cc2F)NS(=O)(=O)c2cc1cc(Cl)c2O
IC50: 100 to 10000 nM

Now consider a different molecule.
The molecule identified as "O=C1NCCOc2ccccc2-c2cc(c(F)cc2F)NS(=O)(=O)c2cc1cc(Cl)c2O" registered its IC50 at 20 to 100 nM

* * *

# assayTarget: ACLY (Homo sapiens (Human), UniProt P53396)
# Sequence (P53396 whole entry): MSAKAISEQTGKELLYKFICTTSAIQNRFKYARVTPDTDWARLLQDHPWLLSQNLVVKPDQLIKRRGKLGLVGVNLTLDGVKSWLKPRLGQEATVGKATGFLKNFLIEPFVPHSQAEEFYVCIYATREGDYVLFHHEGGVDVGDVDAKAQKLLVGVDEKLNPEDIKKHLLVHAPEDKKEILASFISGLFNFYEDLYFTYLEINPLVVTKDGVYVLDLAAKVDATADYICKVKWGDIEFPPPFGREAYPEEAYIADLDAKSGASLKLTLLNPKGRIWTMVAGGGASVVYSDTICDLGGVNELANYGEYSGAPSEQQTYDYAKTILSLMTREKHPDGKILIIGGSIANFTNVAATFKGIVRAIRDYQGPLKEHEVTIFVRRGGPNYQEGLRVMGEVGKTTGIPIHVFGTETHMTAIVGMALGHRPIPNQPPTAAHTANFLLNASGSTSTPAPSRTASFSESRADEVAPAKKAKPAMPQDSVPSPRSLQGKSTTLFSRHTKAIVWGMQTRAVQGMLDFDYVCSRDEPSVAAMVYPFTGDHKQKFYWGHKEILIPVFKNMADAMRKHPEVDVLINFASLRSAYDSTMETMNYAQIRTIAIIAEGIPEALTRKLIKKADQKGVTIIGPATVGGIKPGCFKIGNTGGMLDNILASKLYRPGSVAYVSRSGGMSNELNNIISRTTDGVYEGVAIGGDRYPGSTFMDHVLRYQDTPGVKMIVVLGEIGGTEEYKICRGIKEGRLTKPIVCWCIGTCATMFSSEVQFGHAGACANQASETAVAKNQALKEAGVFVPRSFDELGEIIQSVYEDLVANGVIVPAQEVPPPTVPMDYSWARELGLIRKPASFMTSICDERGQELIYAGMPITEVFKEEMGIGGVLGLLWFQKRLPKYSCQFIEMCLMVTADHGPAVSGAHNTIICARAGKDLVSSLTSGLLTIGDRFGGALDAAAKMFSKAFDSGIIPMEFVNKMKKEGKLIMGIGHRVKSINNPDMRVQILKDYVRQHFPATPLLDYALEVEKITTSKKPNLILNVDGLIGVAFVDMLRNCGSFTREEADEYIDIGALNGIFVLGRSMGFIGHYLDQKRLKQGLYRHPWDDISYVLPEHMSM
# assay: InCell Pulse assay (permeate HEK293 cells, bind to and stabilize ACLY)
# Assay type: cell-based
# condition: HEK293 cells transfected with pICP-ACLY(FL)-ePL; 1 hour at 37° C., 55° C. heat pulse 10 minutes; read-out: InCell Pulse IC50 GMean
pIC50: −log10 of the molar value.
readoutLabel: pIC50

compound: O=C1OCCOc2ccccc2-c2cc(c(F)cc2F)NS(=O)(=O)c2cc1c[nH]c2=O
readoutLabel: pIC50
reportedResult: ≤ 4.30
//
compound: O=C1NCCCc2ccccc2-c2cc(c(F)cc2F)NS(=O)(=O)c2cc1cc(Cl)c2O
readoutLabel: pIC50
reportedResult: 6.00 to 6.52
//
compound: O=C1OCc2ncccc2-c2cc(c(F)cc2F)NS(=O)(=O)c2cc1cc(Cl)c2O
readoutLabel: pIC50
reportedResult: ≤ 4.30
//
compound: O=C1OCCCOc2ccccc2-c2cc(c(F)cc2F)NS(=O)(=O)c2cc1cc(Cl)c2O
readoutLabel: pIC50
reportedResult: 6.00 to 6.52
//
compound: N#Cc1ccc2c(c1)COC(=O)c1cc(Cl)c(O)c(c1)S(=O)(=O)Nc1cc-2c(F)cc1F
readoutLabel: pIC50
reportedResult: ≤ 4.30
//
compound: O=C1OCCOc2cc(F)ccc2-c2ccc(F)c(c2)NS(=O)(=O)c2cc1cc(Cl)c2O
readoutLabel: pIC50
reportedResult: > 6.52
//
compound: O=C1c2cc(Cl)c(O)c(c2)S(=O)(=O)Nc2cc(c(F)cc2F)-c2ccccc2OCC2CN1C2
readoutLabel: pIC50
reportedResult: 6.00 to 6.52
//
compound: CN1c2cc(c(F)cc2F)-c2ccccc2OCCNC(=O)c2cc(Cl)c(O)c(c2)S1(=O)=O
readoutLabel: pIC50
reportedResult: ≤ 4.30

The compound identified as "CN1CCOc2ccccc2-c2cc(c(F)cc2F)NS(=O)(=O)c2cc(cc(Cl)c2O)C1=O" registered its pIC50 at 4.30 to 6.00

The compound identified as "Cc1cc2cc(c1O)S(=O)(=O)Nc1cc(c(F)cc1F)-c1ccccc1CCOC2=O" registered its pIC50 at 6.00 to 6.52

The compound identified as "O=C1OCCOc2ccc(F)cc2-c2ccc(F)c(c2)NS(=O)(=O)c2cc1cc(Cl)c2O" registered its pIC50 at > 6.52

The compound identified as O=C1OCC2Cc3cccc(c3O2)-c2cc(c(F)cc2F)NS(=O)(=O)c2cc1cc(Cl)c2O (single isomer, unassigned) [Compound 41] registered its pIC50 at > 6.52

The compound identified as "N#Cc1ccc2c(c1)-c1cc(c(F)cc1F)NS(=O)(=O)c1cc(cc(Cl)c1O)C(=O)OC2" registered its pIC50 at 6.00 to 6.52

The compound identified as "CN1CCCc2ccccc2-c2cc(c(F)cc2F)NS(=O)(=O)c2cc(cc(Cl)c2O)C1=O" registered its pIC50 at > 6.52

The compound identified as "Nc1cc2cc(n1)S(=O)(=O)Nc1cc(c(F)cc1F)-c1ccccc1OCCOC2=O" registered its pIC50 at ≤ 4.30

The compound identified as "O=C1OCc2ccccc2-c2cc(c(F)cc2F)NS(=O)(=O)c2cc1cc(Cl)c2O" registered its pIC50 at > 6.52
